The origin of these recorded values is the domain aggregation screens of Martell et al. (2025).

Assay: soluble fraction after stress (log2 fold change); higher = more stays soluble; pooled small domains, quantitative proteomics;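 further: 20 min heating vs room temperature control held 20 min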
Conditions: stress: 75 degC
Everything with soluble fraction (log2) lower than -1 is not satisfied; everything else, including exactly -1, is satisfied.

Study these solved cases before continuing.
HMALRFMAYGRINGTNVHFRTGASASTASLGRYSRGTEFGVYDKIGGWYRVRLLSTGQEGYVYSRYLTLTG    not satisfied
HMEEPFRIEKKGDIYYISGKTVERLVAMTDLDNDSAVKRLQRTLKRMGVEDALREHGINPGDTVVIGNYEF    satisfied

# bool: soluble fraction (log2) of HMGQNYTIVKGDSLWKIAQKQYGDGSQWKKIYDANKDAIESAAKKYGKKSSDSGKWIYPGVSLII >= -1 satisfied

Determine whether this sequence has soluble fraction (log2) no lower than -1: HMVSAEQNTLEFIKENVKEDVIEDDIEFYKSLLEDWSVEVDNSSKLLDPGNNNSLLAVIAYSIENEL satisfied

Item HMHPTEKNLTSLLADGSFYMNQNKLETAYDTFTKTIELDPSWAEAWNKRATVLYLMGKYELSQADIDQV with soluble fraction (log2) of -1 or above? satisfied

Quick check: does HMLPKILVMDGKVNKNALTTLGKDEEWVKKVLRNHNIHSIKDVLLALYDTKGKFQYQLYDDYEK have soluble fraction (log2) greater than or equal to -1? satisfied

Exam item: decide whether the reported soluble fraction (log2) for HMYSSASKEEIDQLMKRLILNLDAKGYFWPQDKEKSLKLYLHNLFSKLPLNSSDIRFLHGLIRALSEE is at least -1. not satisfied

Identify whether the reported soluble fraction (log2) of the following sequence is -1 or greater: HMDPTIAAIRKKLKNWTIVEVHMTREELEQAVIDGKVDVFLSSAGFYRRLVRFGARDLATAMSPAYPD satisfied
